pIC50: −log10 of the molar value.
Measurement record for UniProt:P10635; quantity recorded: pIC50.
Sequence (P10635 whole entry): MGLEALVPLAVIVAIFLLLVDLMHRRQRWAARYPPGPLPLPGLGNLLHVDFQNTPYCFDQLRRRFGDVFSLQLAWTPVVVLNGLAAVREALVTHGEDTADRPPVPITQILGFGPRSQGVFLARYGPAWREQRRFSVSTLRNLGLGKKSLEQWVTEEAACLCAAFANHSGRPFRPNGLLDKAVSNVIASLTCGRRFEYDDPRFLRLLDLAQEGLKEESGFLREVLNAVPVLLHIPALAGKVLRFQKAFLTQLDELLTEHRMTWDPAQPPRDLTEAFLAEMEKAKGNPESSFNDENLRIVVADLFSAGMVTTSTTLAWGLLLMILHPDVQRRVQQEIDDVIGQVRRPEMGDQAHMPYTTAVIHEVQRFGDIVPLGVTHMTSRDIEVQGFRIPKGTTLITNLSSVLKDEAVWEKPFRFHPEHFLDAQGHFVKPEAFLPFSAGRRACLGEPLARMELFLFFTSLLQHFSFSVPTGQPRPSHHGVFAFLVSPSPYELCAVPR
Experimental Endpoint: pIC50

{"Molecule Smiles": "CCN1CCC(Oc2ccc(C(=O)Nc3ccc(NC(=O)Nc4cc(C(C)(C)C)on4)cc3)nc2)CC1", "Assay System": "UniProt:P10635", "Experimental Endpoint": "pIC50", "Result": "< 4.40"}
{"Molecule Smiles": "CN1C(C)(C)CC(Oc2ccc(C(=O)Nc3ccc(NC(=O)Nc4cc(C(C)(C)C)on4)cc3)nc2)CC1(C)C", "Assay System": "UniProt:P10635", "Experimental Endpoint": "pIC50", "Result": "< 4.40"}
{"Molecule Smiles": "CCN1C(C)(C)CC(Oc2ccc(C(=O)Nc3ccc(NC(=O)Nc4cc(C(C)(C)C)on4)cc3)nc2)CC1(C)C", "Assay System": "UniProt:P10635", "Experimental Endpoint": "pIC50", "Result": "< 4.40"}
